Test system: c-myc G-quadruplex DNA F22T (human)
Experiment: Binding affinity to human F22T G-quadruplex DNA assessed as change in melting temperature at 1 uM by FRET assay (reference value: 78 degC)
Label t when ΔTm is at or above 9 °C; anything below gets f.

Some entries whose results are on file:
given-smiles	label
O=C1/C(=C/c2ccc3ncccc3c2)CC/C1=C\c1ccc2ncccc2c1	f
C[n+]1cccc2cc(/C=C/C(=O)/C=C/c3ccc4c(ccc[n+]4C)c3)ccc21	t

Q: Does C[n+]1cccc2cc(/C=C3\C[N+](C)(C)C/C(=C\c4ccc5c(ccc[n+]5C)c4)C3=O)ccc21 have a reported ΔTm of at least 9 °C?
Ans: f

Q: Next entry: O=C(/C=C/c1ccc2ncccc2c1)/C=C/c1ccc2ncccc2c1
Ans: f

Q: Next entry: O=C1/C(=C\c2ccc3ncccc3c2)CCC/C1=C/c1ccc2ncccc2c1
Ans: f

Q: Next entry: CN1C/C(=C\c2ccc3ncccc3c2)C(=O)/C(=C/c2ccc3ncccc3c2)C1
Ans: f

Q: Next entry: C[n+]1cccc2cc(/C=C3\CC/C(=C\c4ccc5c(ccc[n+]5C)c4)C3=O)ccc21
Ans: t

---

System: Nucleic Acid
Experiment: Binding affinity to F-c-kit2-T G-quadruplex DNA assessed as change in melting temperature at 1 uM by FRET assay (reference value: 75 degC)
Assay type: nucleic-acid assay
Recorded ΔTm for the following compounds
Number only, in °C; omit the unit.

given-smiles	ΔTm / °C
CN1C/C(=C\c2ccc3ncccc3c2)C(=O)/C(=C/c2ccc3ncccc3c2)C1	1
C[n+]1cccc2cc(/C=C3\C[N+](C)(C)C/C(=C\c4ccc5c(ccc[n+]5C)c4)C3=O)ccc21	6

Q: What reported ΔTm corresponds to O=C1/C(=C/c2ccc3ncccc3c2)CC/C1=C\c1ccc2ncccc2c1 on Nucleic Acid?
Ans: 0

Q: Next entry: C[n+]1cccc2cc(/C=C3/CCC/C(=C/c4ccc5c(ccc[n+]5C)c4)C3=O)ccc21
Ans: 12

Q: Next entry: O=C1/C(=C\c2ccc3ncccc3c2)CCC/C1=C/c1ccc2ncccc2c1
Ans: 0

Q: Next entry: C[n+]1cccc2cc(/C=C3\CC/C(=C\c4ccc5c(ccc[n+]5C)c4)C3=O)ccc21
Ans: 20

Q: Next entry: O=C(/C=C/c1ccc2ncccc2c1)/C=C/c1ccc2ncccc2c1
Ans: 5

Q: Next entry: C[n+]1cccc2cc(/C=C/C(=O)/C=C/c3ccc4c(ccc[n+]4C)c3)ccc21
Ans: 17

---

Test system: human telomeric G-quadruplex DNA F21T (human)
Assay: Binding affinity to F21T G-quadruplex DNA assessed as change in melting temperature at 1 uM by FRET assay (reference value: 60 degC)
Recorded ΔTm for the following compounds
Number only, in °C; omit the unit.

given-smiles	quantity-name	measurement
O=C1/C(=C/c2ccc3ncccc3c2)CC/C1=C\c1ccc2ncccc2c1	ΔTm	0
C[n+]1cccc2cc(/C=C/C(=O)/C=C/c3ccc4c(ccc[n+]4C)c3)ccc21	ΔTm	17

Q: Bench note: what ΔTm did C[n+]1cccc2cc(/C=C3/CCC/C(=C/c4ccc5c(ccc[n+]5C)c4)C3=O)ccc21 show?
Ans: 10

Q: Next entry: O=C1/C(=C\c2ccc3ncccc3c2)CCC/C1=C/c1ccc2ncccc2c1
Ans: 0

Q: Next entry: O=C(/C=C/c1ccc2ncccc2c1)/C=C/c1ccc2ncccc2c1
Ans: 3

Q: Next entry: CN1C/C(=C\c2ccc3ncccc3c2)C(=O)/C(=C/c2ccc3ncccc3c2)C1
Ans: 4

Q: Next entry: C[n+]1cccc2cc(/C=C3\C[N+](C)(C)C/C(=C\c4ccc5c(ccc[n+]5C)c4)C3=O)ccc21
Ans: 7

Q: Next entry: C[n+]1cccc2cc(/C=C3\CC/C(=C\c4ccc5c(ccc[n+]5C)c4)C3=O)ccc21
Ans: 23

---

System: Nucleic Acid
Assay: Binding affinity to F-c-kit1-T G-quadruplex DNA assessed as change in melting temperature at 1 uM by FRET assay (reference value: 54 degC)
Type: nucleic-acid assay
Recorded ΔTm for the following molecules
# output: numeric value plus its unit

Worked examples, 2 molecules total:
given-smiles	ΔTm
C[n+]1cccc2cc(/C=C3\CC/C(=C\c4ccc5c(ccc[n+]5C)c4)C3=O)ccc21	29 °C
C[n+]1cccc2cc(/C=C3/CCC/C(=C/c4ccc5c(ccc[n+]5C)c4)C3=O)ccc21	17 °C

The record that follows has no ΔTm shown yet.
Q: What reported ΔTm corresponds to O=C(/C=C/c1ccc2ncccc2c1)/C=C/c1ccc2ncccc2c1 on Nucleic Acid?
Ans: 10 °C

---

Target: Nucleic Acid
Assay: Binding affinity to single-strand Pu27 oligonucleotide assessed as formation of G-quadruplex complex after 3 mins by PCR stop assay
quantity-name: pIC50
Quick note: pIC50 means taking -log10 of the concentration in moles per liter.

Worked examples, 2 compounds total:
given-smiles	pIC50
C[n+]1cccc2cc(/C=C/C(=O)/C=C/c3ccc4c(ccc[n+]4C)c3)ccc21	6.15
C[n+]1cccc2cc(/C=C3\C[N+](C)(C)C/C(=C\c4ccc5c(ccc[n+]5C)c4)C3=O)ccc21	4.90

Q: Bench note: what pIC50 did C[n+]1cccc2cc(/C=C3\CC/C(=C\c4ccc5c(ccc[n+]5C)c4)C3=O)ccc21 show?
Ans: 6.05

Q: Next entry: C[n+]1cccc2cc(/C=C3/CCC/C(=C/c4ccc5c(ccc[n+]5C)c4)C3=O)ccc21
Ans: 5.96

---

Tested on: Nucleic Acid
Experiment: Binding affinity to F-c-kit1-T G-quadruplex DNA assessed as change in melting temperature at 1 uM by FRET assay (reference value: 54 degC)
Format: nucleic-acid assay
quantity-name: ΔTm (°C)
Number only, in °C; omit the unit.

Worked examples, 4 compounds total:
given-smiles	ΔTm (°C)
C[n+]1cccc2cc(/C=C/C(=O)/C=C/c3ccc4c(ccc[n+]4C)c3)ccc21	24
O=C1/C(=C/c2ccc3ncccc3c2)CC/C1=C\c1ccc2ncccc2c1	1
O=C1/C(=C\c2ccc3ncccc3c2)CCC/C1=C/c1ccc2ncccc2c1	1
CN1C/C(=C\c2ccc3ncccc3c2)C(=O)/C(=C/c2ccc3ncccc3c2)C1	1

The record that follows has no ΔTm shown yet.
Q: Bench note: what ΔTm did C[n+]1cccc2cc(/C=C3\C[N+](C)(C)C/C(=C\c4ccc5c(ccc[n+]5C)c4)C3=O)ccc21 show?
Ans: 14

Where do these numbers come from? They come from ChEMBL document CHEMBL1287726.
